- target or system: cGMP-dependent protein kinase (Eimeria tenella)
- Sequence (Q8MMZ8 whole entry): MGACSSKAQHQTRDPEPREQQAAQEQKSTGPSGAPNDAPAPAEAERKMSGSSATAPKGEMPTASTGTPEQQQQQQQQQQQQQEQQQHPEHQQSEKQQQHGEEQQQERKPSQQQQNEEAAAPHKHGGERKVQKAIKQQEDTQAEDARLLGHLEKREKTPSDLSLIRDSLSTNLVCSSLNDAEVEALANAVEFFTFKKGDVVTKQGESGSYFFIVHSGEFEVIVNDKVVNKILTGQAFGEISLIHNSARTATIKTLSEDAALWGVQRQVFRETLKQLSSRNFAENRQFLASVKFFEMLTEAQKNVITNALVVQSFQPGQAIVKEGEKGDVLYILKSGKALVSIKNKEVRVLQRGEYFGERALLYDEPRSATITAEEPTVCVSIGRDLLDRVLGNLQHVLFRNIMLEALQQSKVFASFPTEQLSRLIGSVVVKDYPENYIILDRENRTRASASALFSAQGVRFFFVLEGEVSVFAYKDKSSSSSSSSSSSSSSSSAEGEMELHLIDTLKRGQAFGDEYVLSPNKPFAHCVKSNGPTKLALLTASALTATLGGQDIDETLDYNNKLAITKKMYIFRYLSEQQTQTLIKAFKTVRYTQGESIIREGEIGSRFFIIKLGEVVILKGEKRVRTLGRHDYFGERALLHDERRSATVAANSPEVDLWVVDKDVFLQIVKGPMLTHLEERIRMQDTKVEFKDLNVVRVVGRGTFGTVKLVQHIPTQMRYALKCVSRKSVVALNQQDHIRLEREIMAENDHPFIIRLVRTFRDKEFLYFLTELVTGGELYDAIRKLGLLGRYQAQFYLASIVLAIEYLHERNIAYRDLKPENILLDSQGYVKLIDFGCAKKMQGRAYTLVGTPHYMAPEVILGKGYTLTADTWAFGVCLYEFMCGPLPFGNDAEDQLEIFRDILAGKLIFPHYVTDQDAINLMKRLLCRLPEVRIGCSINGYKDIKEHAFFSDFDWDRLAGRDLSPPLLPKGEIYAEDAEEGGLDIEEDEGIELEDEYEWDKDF
measurement label: IC50
Please state the value followed by its unit.

1. OC(COCc1ccccc1)CN1CCC(c2cc(-c3ccncc3)c(-c3ccc(F)cc3)[nH]2)CC1 (stereo not drawn) : 0.47 nM

Lab note: each compound below needs its IC50 filled in.
1. COC[C@@H](O)CN1CCC(c2cc(-c3ccncc3)c(-c3ccc(F)cc3)[nH]2)CC1
2. CC(O)[C@H](CO)N1CCC(c2cc(-c3ccncc3)c(-c3ccc(F)cc3)[nH]2)CC1 (stereo partly drawn)
3. CCCC(O)CN1CCC(c2cc(-c3ccncc3)c(-c3ccc(F)cc3)[nH]2)CC1 (stereo not drawn)
4. C[C@H](O)CN1CCC(c2cc(-c3ccncc3)c(-c3ccc(F)cc3)[nH]2)CC1

["0.56 nM", "0.82 nM", "0.38 nM", "0.48 nM"]

# batch: return IC50 for each of the 7 compounds below
1. O[C@H]1CNC(CN2CCC(c3cc(-c4ccncc4)c(-c4ccc(F)cc4)[nH]3)CC2)C1 (stereo partly drawn)
2. C[C@@H](O)CN1CCC(c2cc(-c3ccncc3)c(-c3ccc(F)cc3)[nH]2)CC1
3. CCCCC(O)CN1CCC(c2cc(-c3ccncc3)c(-c3ccc(F)cc3)[nH]2)CC1 (stereo not drawn)
4. CC(O)[C@H](C)N1CCC(c2cc(-c3ccncc3)c(-c3ccc(F)cc3)[nH]2)CC1 (stereo partly drawn)
5. OCCCCN1CCC(c2cc(-c3ccncc3)c(-c3ccc(F)cc3)[nH]2)CC1
6. OC(Cc1ccccc1)CN1CCC(c2cc(-c3ccncc3)c(-c3ccc(F)cc3)[nH]2)CC1 (stereo not drawn)
7. CC(=O)OCCN1CCC(c2cc(-c3ccncc3)c(-c3ccc(F)cc3)[nH]2)CC1

1: 0.16 nM; 2: 1.2 nM; 3: 0.41 nM; 4: 0.86 nM; 5: 1.34 nM; 6: 1.28 nM; 7: 2.08 nM

Report IC50 for each item below.
1. OC(COc1ccccc1)CN1CCC(c2cc(-c3ccncc3)c(-c3ccc(F)cc3)[nH]2)CC1 (stereo not drawn)
2. CC(O)[C@@H](C)N1CCC(c2cc(-c3ccncc3)c(-c3ccc(F)cc3)[nH]2)CC1 (mixture of isomers)

1. 0.66 nM
2. 0.94 nM

Give IC50 for each listed item.
1. CC(C)OCC(O)CN1CCC(c2cc(-c3ccncc3)c(-c3ccc(F)cc3)[nH]2)CC1 (stereo not drawn)
2. CCC(O)CN1CCC(c2cc(-c3ccncc3)c(-c3ccc(F)cc3)[nH]2)CC1 (stereo not drawn)
3. OCC(O)CN1CCC(c2cc(-c3ccncc3)c(-c3ccc(F)cc3)[nH]2)CC1 (stereo in doubt; 5b)
4. CCOCC(O)CN1CCC(c2cc(-c3ccncc3)c(-c3ccc(F)cc3)[nH]2)CC1 (stereo not drawn)

["0.69 nM", "0.71 nM", "0.71 nM", "0.59 nM"]
